Hello, the source for this data is paper PMC10166615, in case you need it.

- study.system: SARS-CoV-2 3CLpro (Severe acute respiratory syndrome coronavirus 2)
assay.endpoint: IC50 (nM)
Report as a plain number; the unit nM is understood.

Query string: Annotate the molecule `CC(C)(C)[C@H](NC(=O)C(F)(F)F)C(=O)N1C[C@@H]2CCC[C@@H]2[C@H]1C(=O)N[C@H](C#N)C[C@@H]1CCNC1=O` with its measured IC50.
Result string: 18.1
